Target: UniProtKB P08172
Sequence (P08172 whole entry): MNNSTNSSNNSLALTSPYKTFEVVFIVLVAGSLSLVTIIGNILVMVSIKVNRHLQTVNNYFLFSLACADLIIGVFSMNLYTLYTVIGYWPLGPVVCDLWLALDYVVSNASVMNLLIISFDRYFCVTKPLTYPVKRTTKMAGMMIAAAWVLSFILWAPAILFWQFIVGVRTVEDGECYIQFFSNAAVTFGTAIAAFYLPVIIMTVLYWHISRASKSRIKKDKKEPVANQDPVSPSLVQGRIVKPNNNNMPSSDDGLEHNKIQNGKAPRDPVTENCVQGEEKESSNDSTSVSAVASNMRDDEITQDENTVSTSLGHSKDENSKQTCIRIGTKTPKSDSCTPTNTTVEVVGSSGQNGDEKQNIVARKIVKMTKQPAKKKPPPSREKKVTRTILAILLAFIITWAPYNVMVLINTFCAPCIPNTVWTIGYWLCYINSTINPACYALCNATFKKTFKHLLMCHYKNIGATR

{"COMPOUND_STRUCTURE": "O=c1ccc2c([C@@H](O)CNCCc3ccc(CCN4CCC(Cn5cnc([C@](O)(c6ccccc6)C6CCCCC6)n5)CC4)cc3)ccc(O)c2[nH]1", "Ki": "0.14 nM"}

----------
Target: UniProt:P20309
Sequence (P20309 whole entry, looked up): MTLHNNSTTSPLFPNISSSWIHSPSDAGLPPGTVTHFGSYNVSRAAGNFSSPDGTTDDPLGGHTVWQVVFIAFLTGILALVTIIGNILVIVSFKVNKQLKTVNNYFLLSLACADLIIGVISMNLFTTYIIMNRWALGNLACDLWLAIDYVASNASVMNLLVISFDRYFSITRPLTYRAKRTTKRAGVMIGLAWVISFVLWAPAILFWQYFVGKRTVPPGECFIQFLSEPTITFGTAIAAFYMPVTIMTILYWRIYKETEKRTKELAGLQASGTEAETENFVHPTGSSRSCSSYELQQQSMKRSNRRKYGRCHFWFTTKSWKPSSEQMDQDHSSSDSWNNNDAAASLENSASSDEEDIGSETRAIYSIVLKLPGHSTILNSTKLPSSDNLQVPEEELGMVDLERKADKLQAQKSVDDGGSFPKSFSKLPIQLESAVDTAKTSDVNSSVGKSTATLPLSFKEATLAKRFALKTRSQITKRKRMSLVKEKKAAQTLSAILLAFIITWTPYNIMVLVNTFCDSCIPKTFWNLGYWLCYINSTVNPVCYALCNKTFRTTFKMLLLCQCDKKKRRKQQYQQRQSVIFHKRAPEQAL
Assay: Displacement of [3H]N-methyl scopolamine from human cloned muscarinic M3 receptor assessed as compound dissociation half life by dilution method

{"COMPOUND": "O=c1ccc2c([C@@H](O)CNCCCCCCCCCN3CCC(Cn4cnc(C(O)(c5ccccc5)C5CCCCC5)n4)CC3)ccc(O)c2[nH]1 (some centres not stated)", "STUDY_SYSTEM": "UniProt:P20309", "RESULT_COMPARATOR": "=", "T1/2, h": 8.18}
{"COMPOUND": "CC(C)N(CC[C@H](c1ccccc1)c1cc(CCCCOc2ccc(CCNC[C@H](O)c3ccc(O)c4[nH]c(=O)ccc34)cc2)ccc1O)C(C)C", "STUDY_SYSTEM": "UniProt:P20309", "RESULT_COMPARATOR": ">", "T1/2, h": 20}
{"COMPOUND": "O=c1ccc2c([C@@H](O)CNCCc3ccc(CCN4CCC(Cn5cnc([C@](O)(c6ccccc6)C6CCCCC6)n5)CC4)cc3)ccc(O)c2[nH]1", "STUDY_SYSTEM": "UniProt:P20309", "RESULT_COMPARATOR": "<", "T1/2, h": 1.67}
{"COMPOUND": "O=c1ccc2c([C@@H](O)CNCCCCCCCCCN3CCC(Cn4cnc([C@](O)(c5ccccc5)C5CCCCC5)n4)CC3)ccc(O)c2[nH]1", "STUDY_SYSTEM": "UniProt:P20309", "RESULT_COMPARATOR": "=", "T1/2, h": 4.63}
{"COMPOUND": "O=c1ccc2c([C@@H](O)CNCCCCCCCCCN3CCC(Cn4cnc(C(O)(c5ccccc5)c5ccccc5)n4)CC3)ccc(O)c2[nH]1", "STUDY_SYSTEM": "UniProt:P20309", "RESULT_COMPARATOR": "<", "T1/2, h": 0.25}
{"COMPOUND": "O=C(Nc1ccccc1-c1ccc(O)c(Cl)c1)OC1CCN(CCCCCCCCCNC[C@H](O)c2ccc(O)c3[nH]c(=O)ccc23)CC1", "STUDY_SYSTEM": "UniProt:P20309", "RESULT_COMPARATOR": "=", "T1/2, h": 1.95}
{"COMPOUND": "C[N+]1(C)[C@@H]2C[C@@H](OC(=O)C(O)(c3cccs3)c3cccs3)C[C@H]1[C@@H]1O[C@@H]12", "STUDY_SYSTEM": "UniProt:P20309", "RESULT_COMPARATOR": ">", "T1/2, h": 22.9}
